MEASURED_TARGET: T1, human GIP receptor (human) (UniProt P48546)
T1 sequence (looked up): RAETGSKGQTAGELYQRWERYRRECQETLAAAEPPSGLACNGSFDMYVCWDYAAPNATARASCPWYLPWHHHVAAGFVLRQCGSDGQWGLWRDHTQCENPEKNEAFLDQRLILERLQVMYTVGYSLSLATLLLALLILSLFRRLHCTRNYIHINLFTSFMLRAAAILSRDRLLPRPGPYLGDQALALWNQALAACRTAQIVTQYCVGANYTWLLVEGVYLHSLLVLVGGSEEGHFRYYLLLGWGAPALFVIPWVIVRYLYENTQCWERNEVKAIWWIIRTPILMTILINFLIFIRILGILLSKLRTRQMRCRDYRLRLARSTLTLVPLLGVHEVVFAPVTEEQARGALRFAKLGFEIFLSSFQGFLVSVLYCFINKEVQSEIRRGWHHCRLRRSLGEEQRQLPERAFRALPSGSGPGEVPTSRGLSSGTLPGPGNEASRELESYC
TEST_DETAILS: cell-based or functional assay
Give Relative cAMP EC50 for every item shown.
Give bare numbers, in nM.

>  <BINDER>
YXQGTFTSDXSQXLDKKAQXAFIEXLIEXGPSSGAPPPSGEE (Aib, 4Pal, αMeL, Me4Pal, acylated K, C-terminal amide; synthetic construct; SITE 2: note = 2-Aminoisobutyric Acid; SITE 10: note = 3-(4-Pyridyl)-L-alanine; SITE 13: note = alpha-methyl-leucine; SITE 17: note = Lysine is chemically modified through conjugation of the epsilon-amino group of the Lysine side chain with (gamma-Glu)2-CO-(CH2)16-CO2H; SITE 20:) [Example 1121]

>  <UNITS_LABEL>
nM

>  <Relative cAMP EC50>
0.115

$$$$
>  <BINDER>
YXQGTFTSDFSXXLDKKAQXAFIEYLLEGGPSSGAPPPGES (synthetic construct; SITE 2: note = 2-Aminoisobutyric Acid; SITE 12: note = L-ornithine; SITE 13: note = alpha-methyl-leucine; SITE 17: note = Lysine is chemically modified through conjugation of the epsilon-amino group of the Lysine side chain with (2-[2-(2-Amino-ethoxy)-ethoxy]-acetyl)2-(gamma-Glu)) [Example 118]

>  <UNITS_LABEL>
nM

>  <Relative cAMP EC50>
0.43

$$$$
>  <BINDER>
YXQGTXTSDXXIXLDXKAAXEFIEXLVEGGPSSGEPPPSGS (synthetic construct; SITE 2: note = 2-Aminoisobutyric Acid; SITE 6: note = alpha-methyl-2-fluoro-L-phenylalanine; SITE 10: note = 3-(4-Pyridyl)-L-alanine; SITE 11: note = alpha-methyl-L-serine; SITE 13: note = alpha-methyl-leucine; SITE 16: note = L-ornithine; SITE 17: note = Lysine is chemically mo) [Example 695 (SEQ ID NO: 701)]

>  <UNITS_LABEL>
nM

>  <Relative cAMP EC50>
0.0136

$$$$
>  <BINDER>
YXQGTFTSDFSKXLDKKAQXAFIEYLIEXGESSGAPPPSGE (Aib, αMeL, acylated Lys (AEEA-γGlu-C18 diacid), C-terminal amide; synthetic construct; SITE 2: note = 2-Aminoisobutyric Acid; SITE 13: note = alpha-methyl-leucine; SITE 17: note = Lysine is chemically modified through conjugation of the epsilon-amino group of the Lysine side chain with (2-[2-(2-Amino-ethoxy)-ethoxy]-acetyl)-(gamma-Glu)-CO-(CH2) 16-CO2H; SITE 20: n) [Example 217]

>  <UNITS_LABEL>
nM

>  <Relative cAMP EC50>
0.0897

$$$$
>  <BINDER>
YXQGTFTSDXSRXLDKKAQXAFIEYLLAGGPSSGAPPPSGE (synthetic construct; SITE 2: note = 2-Aminoisobutyric Acid; SITE 10: note = 3-(4-Pyridyl)-L-alanine; SITE 13: note = alpha-methyl-leucine; SITE 17: note = Lysine is chemically modified through conjugation of the epsilon-amino group of the Lysine side chain with (2-[2-(2-Amino-ethoxy)-ethoxy]-acetyl)) [Example 113]

>  <UNITS_LABEL>
nM

>  <Relative cAMP EC50>
0.24

$$$$

Now consider the entry below.
Tell us which Relative cAMP EC50 value is on record for YXQGTFTSDXSQXLDXKAQXAFIEXLIEXGPSSGEPPPSGSEE (not fully specified; Aib, 4Pal, Orn, Me4Pal, αMeY; lipidated Lys; C-terminal amide; synthetic construct; SITE 2: note = 2-Aminoisobutyric Acid; SITE 10: note = 3-(4-Pyridyl)-L-alanine; SITE 13: note = alpha-methyl-leucine; SITE 16: note = L-ornithine; SITE 17: note = Lysine is chemically modified through conjugation of the epsilon-amino group of the Lysine side chain with D-Glutami) [Example 1103]
0.0723
